condition-context: in n-methylformamide, 298.15 K
quantity-measured: solubility (mole fraction)
Give bare numbers.

Return reported solubility (mole fraction). Input compound: Cc1cnc(NC(=O)C2=C(O)c3ccccc3S(=O)(=O)N2C)s1
0.00159

---

condition-context: in formamide, 303.15 K
quantity-measured: solubility (mole fraction)

Could you please provide reported solubility (mole fraction) for Cc1cnc(NC(=O)C2=C(O)c3ccccc3S(=O)(=O)N2C)s1 ? Thanks!
0.000802

---

condition-context: in formamide, 308.15 K
quantity-measured: solubility (mole fraction)
Give bare numbers.

Return the recorded solubility (mole fraction) value; entry: Cc1cnc(NC(=O)C2=C(O)c3ccccc3S(=O)(=O)N2C)s1
0.000872

---

condition-context: in DMF, 313.15 K
quantity-measured: solubility (mole fraction)
Give bare numbers.

Return value of solubility (mole fraction) for input Cc1cnc(NC(=O)C2=C(O)c3ccccc3S(=O)(=O)N2C)s1 , no commentary.
0.0163

---

condition-context: in n-methylformamide, 303.15 K
quantity-measured: solubility (mole fraction)
One number for each entry.

Report solubility (mole fraction) for Cc1cnc(NC(=O)C2=C(O)c3ccccc3S(=O)(=O)N2C)s1
0.00169

---

condition-context: in formamide, 293.15 K
quantity-measured: solubility (mole fraction)
Answers are plain numbers.

Return solubility (mole fraction) (reported value) for this compound: Cc1cnc(NC(=O)C2=C(O)c3ccccc3S(=O)(=O)N2C)s1
0.00069

---

condition-context: in DMF, 303.15 K
quantity-measured: solubility (mole fraction)
Give bare numbers.

Give a short answer stating reported solubility (mole fraction) for Cc1cnc(NC(=O)C2=C(O)c3ccccc3S(=O)(=O)N2C)s1 .
0.0139

---

condition-context: in formamide, 298.15 K
quantity-measured: solubility (mole fraction)
Give bare numbers.

Assign solubility (mole fraction) to the following record: Cc1cnc(NC(=O)C2=C(O)c3ccccc3S(=O)(=O)N2C)s1
0.000749

---

condition-context: in formamide, 313.15 K
quantity-measured: solubility (mole fraction)
One number for each entry.

Please give measured solubility (mole fraction) of the following entry: Cc1cnc(NC(=O)C2=C(O)c3ccccc3S(=O)(=O)N2C)s1
0.000927

---

condition-context: in n-methylformamide, 308.15 K
quantity-measured: solubility (mole fraction)
Numbers only.

Using the record for Cc1cnc(NC(=O)C2=C(O)c3ccccc3S(=O)(=O)N2C)s1 , state its measured solubility (mole fraction).
0.00182

---

condition-context: in DMF, 308.15 K
quantity-measured: solubility (mole fraction)
Answers are plain numbers.

Return solubility (mole fraction) for the following compound: Cc1cnc(NC(=O)C2=C(O)c3ccccc3S(=O)(=O)N2C)s1
0.0153
